Data provenance: paper PMC5540273

Reported values of %Inh for individual entries
- Tested on: ZAP70
- COND: concentration: 1 μM, replicates: in singlicate; n = 1;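 further: KINOMEscan kinase panel screen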
Field: numeric (%). Do not append units.

See these solved cases before continuing.
Request: Note %Inh for the molecule shown: CN(C)CCNS(=O)(=O)c1ccc(-c2ccnc3[nH]ccc23)cc1
Response: 0

Request: Note %Inh for the molecule shown: Cn1cc(-c2cnc(N)c3c(-c4ccc5c(c4)CCN5C(=O)Cc4ccccc4)csc23)cn1
Response: 0

Request: Note %Inh for the molecule shown: CCNC(=O)/C=C/c1n[nH]c2cc(Sc3ccccc3C(=O)NC)ccc12
Response: 0

Request: Note %Inh for the molecule shown: Nc1cccc(-c2ccc3c(N)n[nH]c3c2)c1
Response: 0

Others:
Request: Note %Inh for the molecule shown: CN(c1ccc2c(c1)nc(NCc1ccccc1)n2C)c1ccnc(Nc2ccc(CS(C)(=O)=O)cc2)n1.Cl
Response: 27

Request: Note %Inh for the molecule shown: Cc1ccc(O)cc1Nc1ccnc2cc(-c3ccc(CN4CCCCC4)o3)ccc12
Response: 0

Request: Note %Inh for the molecule shown: CC(C)c1nc(-c2ccc(F)c(NS(=O)(=O)c3c(F)cccc3F)c2)c(-c2ccnc(Nc3ccc(N4CCOCC4)nc3)n2)s1
Response: 0

Request: Note %Inh for the molecule shown: CSc1ccc(NC2=C(c3ccc(Cl)cc3)C(=O)NC2=O)cc1
Response: 0

Request: Note %Inh for the molecule shown: N#CC1(c2cccc(C(=O)Nc3cccc(Oc4ccc5nc(NC(=O)C6CC6)sc5n4)c3)c2)CC1
Response: 0

Request: Note %Inh for the molecule shown: Cl.Cl.NC(CNC(=O)c1cc(Br)c(-c2ccnc3[nH]ccc23)s1)c1ccccc1 (stereo not drawn)
Response: 0

Request: Note %Inh for the molecule shown: O=C(Nc1n[nH]c2nc(-c3ccccc3)ccc12)C1CC1
Response: 19

Request: Note %Inh for the molecule shown: Cc1cc(-c2c(-c3ccc(F)cc3)ncn2CCCN2CCOCC2)nc(N)n1
Response: 15

----------
- Tested on: DMPK2
- Construct: gene CDC42BPG
- COND: concentration: 1 μM, replicates: in singlicate; n = 1
Reported values of %Inh for individual entries
Please answer using a numeric value trailed by its unit.

See these solved cases before continuing.
Request: Note %Inh for the compound shown: CC(C)(C)c1ccc(C(=O)Nc2cn3cc(-n4ccnc4)ccc3n2)cc1
Response: 4%

Request: Note %Inh for the compound shown: CCn1cnc2c(NCc3ccccc3)ncnc21 [SKF-96418]
Response: 1%

Request: Note %Inh for the compound shown: Cc1ccccc1CC(=O)N1CCc2cc(-c3cn(C)c4ncnc(N)c34)ccc21 [GSK2603346]
Response: 74%

Request: Note %Inh for the compound shown: Cn1cc(-c2ccc3c(c2)CCN3C(=O)Cc2cc(F)cc(F)c2F)c2c(N)ncnc21 [GSK2634140]
Response: 56%

Request: Note %Inh for the compound shown: CS(=O)(=O)c1cccc(CNc2nc(Nc3ccc4c(c3)CCC(=O)N4)ncc2C(F)(F)F)c1
Response: 0%

Request: Note %Inh for the compound shown: COc1cccc2c(-c3ccncc3)c(-c3ccc(F)cc3)nn12 [GW468513]
Response: 98.9%

Others:
Request: Note %Inh for the compound shown: CC(C)NCC(Cc1ccccc1)NC(=O)c1cc(Br)c(-c2ccnc3[nH]ccc23)s1.Cl.Cl (stereo not drawn) [GSK1383281]
Response: 50%

Request: Note %Inh for the compound shown: COc1cc(Nc2nccc(N3CCC(NC(=O)Nc4ccc5c(c4)OCO5)C3)n2)cc(OC)c1OC (stereo not drawn) [GSK1379766]
Response: 10%

Request: Note %Inh for the compound shown: Nc1ncc(-c2ccc3nccc(-c4ccncc4)c3c2)cc1S(=O)(=O)N1CCCCC1 [GSK1693850]
Response: 15%

----------
Reported values of %Inh for individual entries
- Test system: WNK1
- COND: concentration: 1 μM, replicates: in singlicate; n = 1
Field: numeric (%). Do not append units.

See these solved cases before continuing.
Request: Note %Inh for the compound shown: Nc1ncc(-c2ccc3nccc(-c4ccncc4)c3c2)cc1S(=O)(=O)N1CCCCC1
Response: 1

Request: Note %Inh for the compound shown: COc1cc(Nc2nccc(N3CCC(NC(=O)Nc4ccc5c(c4)OCO5)C3)n2)cc(OC)c1OC (centres unmarked)
Response: 11

Request: Note %Inh for the compound shown: COC(=O)Nc1nc2ccc(Oc3ccc(NC(=O)Nc4cc(C(F)(F)F)ccc4F)cc3)cc2[nH]1.Cl
Response: 25

Request: Note %Inh for the compound shown: O=C(Nc1n[nH]c2nc(-c3ccccc3O)ccc12)C1CC1
Response: 0

Request: Note %Inh for the compound shown: Cc1ccc(Nc2ccnc(Nc3ccc(C)c(F)c3)n2)cc1O.Cl
Response: 41

Others:
Request: Note %Inh for the compound shown: COc1cccc(CC(=O)N2CCc3cc(-c4cn(C)c5ncnc(N)c45)ccc32)c1
Response: 21

Request: Note %Inh for the compound shown: COc1cccc(-c2nc(-c3ccccc3)[nH]c2-c2ccncc2)c1
Response: 9

Request: Note %Inh for the compound shown: CS(=O)(=O)c1cccc(CNc2nc(Nc3ccc4c(c3)CCC(=O)N4)ncc2C(F)(F)F)c1
Response: 0

Request: Note %Inh for the compound shown: CCOc1nccc(-c2c(-c3ccc(F)cc3)ncn2C2CCNCC2)n1
Response: 25

----------
Reported values of %Inh for individual entries
- Test system: PRKD1
- COND: concentration: 1 μM, replicates: in singlicate; n = 1
Field: numeric (%). Do not append units.

See these solved cases before continuing.
Request: State measured %Inh of the compound Cn1cc(-c2ccc3c(c2)CCN3C(=O)Cc2cc(F)cc(C(F)(F)F)c2)c2c(N)ncnc21 with PRKD1.
Response: 0

Request: State measured %Inh of the compound COc1cccc2c(-c3ccncc3)c(-c3ccc(F)cc3)nn12 with PRKD1.
Response: 29

Others:
Request: State measured %Inh of the compound Nc1cccc(-c2ccc3c(N)n[nH]c3c2)c1 with PRKD1.
Response: 0

Request: State measured %Inh of the compound N#CC1(c2cccc(C(=O)Nc3cccc(Oc4ccc5nc(NC(=O)C6CC6)sc5n4)c3)c2)CC1 with PRKD1.
Response: 40

Request: State measured %Inh of the compound COc1cccc(NC(=O)NCCNc2ccnc(Nc3ccc(F)cc3)n2)c1 with PRKD1.
Response: 0

Request: State measured %Inh of the compound Cl.Cl.NCC(NC(=O)c1cc(-c2cccnc2)c(-c2ccnc3[nH]ccc23)s1)c1ccccc1 (centres unmarked) with PRKD1.
Response: 1

Request: State measured %Inh of the compound Cl.O=C(Nc1ccc(Oc2ccc3[nH]c(NC(=O)c4ccco4)nc3c2)cc1)Nc1cc(C(F)(F)F)ccc1F with PRKD1.
Response: 0

Request: State measured %Inh of the compound CN(C)CCNS(=O)(=O)c1ccc(-c2ccnc3[nH]ccc23)cc1 with PRKD1.
Response: 0

----------
- Tested on: MAP4K5
- COND: concentration: 1 μM, replicates: in singlicate; n = 1
Reported values of %Inh for individual entries
Field: numeric (%). Do not append units.

Request: Note %Inh for the compound shown: CCNc1nccc(-c2c(-c3ccc(F)cc3)ncn2C2CCN(C)CC2)n1
Response: 0

Others:
Request: Note %Inh for the compound shown: COc1ccc(NC(=O)c2ccoc2)cc1-c1ccc(C(=O)NCC2CC2)cc1
Response: 7

Request: Note %Inh for the compound shown: CN(c1ccc(NC(=O)N2CCN(CCCN3CCOCC3)CC2)cc1)c1ccnc(Nc2ccc(CS(C)(=O)=O)cc2)n1.Cl
Response: 30

Request: Note %Inh for the compound shown: COc1cccc(NC(=O)NCCNc2ccnc(Nc3ccc(F)cc3)n2)c1
Response: 0

Request: Note %Inh for the compound shown: CN1CCN(Cc2ccc(NC(=O)Nc3ccc(N(C)c4ccnc(Nc5ccc(CS(C)(=O)=O)cc5)n4)cc3)cc2)CC1.Cl
Response: 82

Request: Note %Inh for the compound shown: CC(=O)Nc1cn2nc(Oc3cccc(NC(=O)c4cccc(C(F)(F)F)c4)c3)ccc2n1
Response: 90

Request: Note %Inh for the compound shown: Nc1ncnc2scc(-c3ccc(NC(=O)Cc4cc(F)ccc4F)cc3)c12.O=C(O)C(F)(F)F
Response: 70

Request: Note %Inh for the compound shown: COc1cc(Nc2nccc(N3CCC(NS(=O)(=O)c4ccc(NC(C)=O)cc4)CC3)n2)cc(OC)c1OC
Response: 53

Request: Note %Inh for the compound shown: Cn1cc(-c2ccc3c(c2)CCN3C(=O)Cc2cc(F)cc(C(F)(F)F)c2)c2c(N)ncnc21
Response: 31

----------
Reported values of %Inh for individual entries
- System: GRK3
- Construct: gene ADRBK2
- COND: concentration: 1 μM, replicates: in singlicate; n = 1
Field: numeric (%). Do not append units.

Request: Note %Inh for the compound shown: O=C(O)C(F)(F)F.O=c1[nH]ccc2nc(N[C@@H]3CCNC3)nc(Nc3ccc4c(c3)S(=O)(=O)CC4)c12 [GSK2181306]
Response: 60

Request: Note %Inh for the compound shown: COC(=O)Nc1nc2ccc(Oc3ccc(NC(=O)Nc4cc(C(F)(F)F)ccc4F)cc3)cc2[nH]1.Cl [GW654607]
Response: 0

Request: Note %Inh for the compound shown: NCCC(NC(=O)c1cc(Br)c(-c2ccnc3[nH]ccc23)s1)c1ccccc1.O=C(O)C(F)(F)F.O=C(O)C(F)(F)F (centres unmarked) [GSK1307810]
Response: 96.4

Others:
Request: Note %Inh for the compound shown: O=C(Nc1n[nH]c2nc(-c3ccccc3)ccc12)C1CC1 [SB-708999]
Response: 28

Request: Note %Inh for the compound shown: CC(C)c1nc(-c2cccc(NS(=O)(=O)c3c(F)cccc3F)c2)c(-c2ccnc(Nc3ccc(N4CCOCC4)nc3)n2)s1.Cl [GSK1723980]
Response: 0

Request: Note %Inh for the compound shown: CC(C)(C)c1ccc(C(=O)Nc2cn3cc(-n4ccnc4)ccc3n2)cc1
Response: 0

Request: Note %Inh for the compound shown: O=C(Nc1n[nH]c2nc(-c3ccccc3O)ccc12)C1CC1 [SB-711880]
Response: 0

Request: Note %Inh for the compound shown: Cc1cc(-c2c(-c3ccc(F)cc3)ncn2CCCN2CCOCC2)nc(N)n1 [SB-222517]
Response: 4
